Documented melting point across a set of compounds

Give its melting point value. Item: `Cc1sc(N)c(C(=O)c2ccc(Br)s2)c1C`
128 to 130 °C

Please give the measured melting point for this compound: CCOC(=O)C1C=Nc2c(cc(F)cc2[N+](=O)[O-])C1=O (stereo unspecified)
278 to 280 °C

Which melting point reading was recorded for the compound `Oc1ncnc2nc(C(F)(F)F)ccc12` ?
268 to 269 °C

Any idea what melting point was measured for `Cc1oc(-c2ccccc2)nc1COc1ccc(COc2ccccc2CC(=O)O)cc1` ?
153 to 154 °C

Field request: melting point | item: `COC(=O)C=Cc1ccc(Cl)c(Cl)c1`
114 to 115 °C

Item under review: `COC1=C(OC)C(=O)c2c(N)cccc2C1=O` . Reported melting point?
116 to 117 °C
